Reference for the values: patent US20240400675A1

# system: T1, human CLDN9 (UniProt O95484 1-217)
# T1 chain: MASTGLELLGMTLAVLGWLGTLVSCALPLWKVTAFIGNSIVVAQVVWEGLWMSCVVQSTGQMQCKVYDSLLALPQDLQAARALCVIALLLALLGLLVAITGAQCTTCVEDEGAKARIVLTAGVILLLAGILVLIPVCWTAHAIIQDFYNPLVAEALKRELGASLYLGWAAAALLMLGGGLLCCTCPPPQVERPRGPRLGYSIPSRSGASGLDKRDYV
# experiment-summary: HEK293E cell binding; avid
Each record here notes measured EC50.
Provide only the numeric value, understood in µg/mL.

These recorded examples may help you get a feel for the data.
{"binder": "XENP35929 H2_L1.107 (antibody, V domains shown) VH: EVQLVQSGAEVKKPGESLRISCKTSGYTFTEYTMHWVRQMPGKSLEWMGGIDPNNGNTHYNQKFQGHVTISVDKSISTAYLQWSSLKASDTAMYYCARIYYFGRLYFDFWGAGTLVTVSS VL: DIQMTQSPSSLSASVGDRVTITCQASEDIYNRLAWYQQKPGKVPKLLISGATSLETGVPSRFSGSGSGKDYTFTISSLQPEDIATYYCQQYWSAPLTFGGGTKVEIKR", "reported-endpoint": "EC50", "units-label": "µg/mL", "quantitative-result": 99.1}
{"binder": "XENP36065 H2.118_L1 (antibody, V domains shown) VH: EVQLVQSGAEVKKPGESLRISCKTSGYTFTEYTMHWVRQMPGKSLEWMGGIDPNNGNTHYNQKKQGHVTISVDKSISTAYLQWSSLKASDTAMYYCARIYYFGRLYFDFWGAGTLVTVSS VL: DIQMTQSPSSLSASVGDRVTITCQASEDIYNRLAWYQQKPGKVPKLLISGATSLETGVPSRFSGSGSGKDYTFTISSLQPEDIATYYCQQYWSSPLTFGGGTKVEIKR", "reported-endpoint": "EC50", "units-label": "µg/mL", "quantitative-result": 492}
{"binder": "XENP34220, humanized C6-30 H2L1 bivalent mAb (antibody, V domains shown) VH: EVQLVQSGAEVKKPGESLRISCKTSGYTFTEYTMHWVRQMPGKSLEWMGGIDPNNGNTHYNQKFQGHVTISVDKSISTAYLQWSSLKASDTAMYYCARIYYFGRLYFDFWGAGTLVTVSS VL: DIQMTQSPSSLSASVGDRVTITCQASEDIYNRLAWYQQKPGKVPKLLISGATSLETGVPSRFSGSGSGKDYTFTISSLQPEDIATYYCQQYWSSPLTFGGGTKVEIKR", "reported-endpoint": "EC50", "units-label": "µg/mL", "quantitative-result": 11.1}

GET /value?item= XENP35883 H1.19_L1 (antibody, V domains shown) VH: QVQLVQSGAEVKKPGASVKVSCKTSGYTFTEYTMHWVRQAPGQSLEWMGGIDPNNGNTHYNQKFQGRVTITVDKSASTAYMELSSLRSEDTATYYCARIYYFGRLYFDFWGAGTLVTVSS VL: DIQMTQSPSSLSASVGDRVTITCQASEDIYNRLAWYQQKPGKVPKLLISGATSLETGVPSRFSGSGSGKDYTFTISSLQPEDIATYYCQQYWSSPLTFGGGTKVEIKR &field=EC50 returns 16.8

In plain terms, XENP35981 H2_L1.189 (antibody, V domains shown) VH: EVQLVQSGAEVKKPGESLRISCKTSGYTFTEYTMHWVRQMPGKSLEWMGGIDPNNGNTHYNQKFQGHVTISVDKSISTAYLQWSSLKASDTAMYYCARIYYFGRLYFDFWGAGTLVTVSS VL: DIQMTQSPSSLSASVGDRVTITCQASEDIYLRLAWYQQKPGKVPKLLISGATSLETGVPSRFSGSGSGKDYTFTISSLQPEDIATYYCQQYWSSPLTFGGGTKVEIKR has a documented EC50 of 31.7
